Attribution: patent US7750003B2

- Test target: recombinant mTOR (FLAG-tagged, residues 1362-2549) (Homo sapiens, UniProt P42345)
- Sequence (P42345 1362-2549): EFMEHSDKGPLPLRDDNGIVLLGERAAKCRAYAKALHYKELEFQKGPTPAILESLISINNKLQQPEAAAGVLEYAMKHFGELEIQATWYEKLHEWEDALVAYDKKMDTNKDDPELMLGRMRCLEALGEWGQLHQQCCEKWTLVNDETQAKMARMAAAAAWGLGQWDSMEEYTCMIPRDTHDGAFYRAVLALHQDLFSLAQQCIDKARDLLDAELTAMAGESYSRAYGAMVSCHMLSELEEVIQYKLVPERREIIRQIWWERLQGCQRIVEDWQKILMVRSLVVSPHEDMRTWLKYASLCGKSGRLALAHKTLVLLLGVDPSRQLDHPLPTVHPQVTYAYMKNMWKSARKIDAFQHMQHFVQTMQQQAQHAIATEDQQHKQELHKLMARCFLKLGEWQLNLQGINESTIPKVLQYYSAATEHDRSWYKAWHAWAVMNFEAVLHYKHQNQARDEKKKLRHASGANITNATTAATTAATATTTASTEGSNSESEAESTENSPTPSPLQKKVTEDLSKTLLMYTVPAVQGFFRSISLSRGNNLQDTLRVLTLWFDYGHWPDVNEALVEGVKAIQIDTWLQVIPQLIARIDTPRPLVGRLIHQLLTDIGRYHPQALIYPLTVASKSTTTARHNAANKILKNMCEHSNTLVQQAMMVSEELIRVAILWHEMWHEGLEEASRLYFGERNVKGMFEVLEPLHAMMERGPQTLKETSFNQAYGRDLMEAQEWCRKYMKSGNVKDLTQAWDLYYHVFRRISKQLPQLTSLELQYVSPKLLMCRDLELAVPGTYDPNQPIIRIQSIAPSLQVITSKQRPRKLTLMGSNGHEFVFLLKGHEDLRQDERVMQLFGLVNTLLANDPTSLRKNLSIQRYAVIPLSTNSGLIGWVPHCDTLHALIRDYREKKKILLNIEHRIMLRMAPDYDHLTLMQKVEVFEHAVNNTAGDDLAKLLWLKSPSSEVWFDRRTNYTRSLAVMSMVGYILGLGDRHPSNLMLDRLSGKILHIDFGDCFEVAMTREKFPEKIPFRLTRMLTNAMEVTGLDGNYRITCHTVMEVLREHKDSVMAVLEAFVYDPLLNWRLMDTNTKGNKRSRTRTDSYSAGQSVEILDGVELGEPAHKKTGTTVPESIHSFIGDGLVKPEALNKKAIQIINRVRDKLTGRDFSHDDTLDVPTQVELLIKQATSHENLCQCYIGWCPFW
- Test description: In vitro mTOR kinase assay (Test (a), AlphaScreen)
- Condition info: ATP 20 μM, read-out: Test (a): IC50 versus mTOR kinase
Overview of reported IC50 across a group of compounds:
Express the result in nM but write the number alone.

Compound	Test target	IC50 (nM)
CN(C)CCNC(=O)Nc1ccc(-c2nc(N3CCOCC3)cc(C(C)(C)S(C)(=O)=O)n2)cc1 [Example 21c]	recombinant mTOR (FLAG-tagged, residues 1362-2549) (Homo sapiens, UniProt P42345)	480
C[C@H]1COCCN1c1cc(C(C)(C)S(C)(=O)=O)nc(-c2ccc(NC(=O)Nc3ccccc3)cc2)n1 [Example 24w]	recombinant mTOR (FLAG-tagged, residues 1362-2549) (Homo sapiens, UniProt P42345)	34
C[C@H]1COCCN1c1cc(CO)nc(-c2ccc(NC(=O)NC3CC3)cc2)n1	recombinant mTOR (FLAG-tagged, residues 1362-2549) (Homo sapiens, UniProt P42345)	190
CNC(=O)Nc1ncc(-c2nc(CS(C)(=O)=O)cc(N3CCOC[C@@H]3C)n2)s1	recombinant mTOR (FLAG-tagged, residues 1362-2549) (Homo sapiens, UniProt P42345)	140

Note to self: IC50 recorded for CNC(=O)Nc1ccc(-c2nc(CS(=O)(=O)c3ccc(NC(C)=O)cc3)cc(N3CCOC[C@@H]3C)n2)cc1 [Example 19c] was 22

Note to self: IC50 recorded for CN(C)CCCCNC(=O)Nc1ccc(-c2nc(CS(C)(=O)=O)cc(N3CCOCC3)n2)cc1 [Example 45d] was 560

Note to self: IC50 recorded for CNC(=O)Nc1ccc(-c2nc(CS(=O)(=O)c3ccccn3)cc(N3CCOC[C@@H]3C)n2)cc1 [Example 33f] was 270
